tested on: L1210 leukemia ip in BDF1 mice, survival T/C; experiment: NCI In Vivo Anticancer Drug Screen. Data for tumor model L1210 Leukemia (intraperitoneal) in B6D2F1 (BDF1) mice; settings: endpoint: mean survival time; dose: 50.0 mg/kg/injection; schedule: Q01DX009 (ip); vehicle: Klucel (hydroxypropylcellulose) (HPC); higher = longer survival
Inconclusive results and toxic doses are left out.
Answer each item with its documented T/C.

Query O=C1CCC(N2C(=O)c3ccccc3C2=O)C(=O)N1 (stereo not drawn) on L1210 leukemia ip in BDF1 mice, survival T/C; T/C returned: 111 % of control

Per the reported L1210 leukemia ip in BDF1 mice, survival T/C data, `O=C1CN=C(c2ccccc2Cl)c2cc(Cl)ccc2N1` has T/C of 106 % of control

Readout T/C for `Cc1ccc(P(=O)(O)O)cc1C` , test system L1210 leukemia ip in BDF1 mice, survival T/C, was 101 % of control

Value sought: T/C, system L1210 leukemia ip in BDF1 mice, survival T/C, item `COc1ccccc1N1CCN(CCCC(=O)c2ccc(F)cc2)CC1` . Result: 105 % of control

Summary line: `CNC(=O)Oc1cc2ccccc2cc1C(=O)Nc1cc(OC)ccc1OC` , L1210 leukemia ip in BDF1 mice, survival T/C, reported T/C = 101 % of control

The observed T/C for `Cn1c(=O)c(CC(C(=O)O)C(=O)O)nc2ccccc21` when tested with L1210 leukemia ip in BDF1 mice, survival T/C stands at 93 % of control

Bench note, L1210 leukemia ip in BDF1 mice, survival T/C: `CN(Nc1c([N+](=O)[O-])cc([N+](=O)[O-])cc1[N+](=O)[O-])c1ccc2ccccc2c1` , T/C reads 103 % of control

Value (T/C, L1210 leukemia ip in BDF1 mice, survival T/C) for record `ClC1=C(Cl)C(Cl)(Cl)C(Cl)(Cl)C1(Cl)Cl` = 96 % of control

* * *

Kindly state T/C for each of the entries shown.
test system: L1210 leukemia ip in BDF1 mice, survival T/C; assay: NCI In Vivo Anticancer Drug Screen. Data for tumor model L1210 Leukemia (intraperitoneal) in B6D2F1 (BDF1) mice; conditions: endpoint: mean survival time; dose: 200.0 mg/kg/injection; schedule: Q01DX001 (ip); vehicle: Klucel (hydroxypropylcellulose) (HPC); higher = longer survival
Inconclusive results and toxic doses are left out.

// sample `Cc1ccc(-c2oc(-c3ccc(C)cc3)c3cc(C)c(C)cc23)cc1` , its T/C was 90 % of control

Entry `C/C(CCCCCCCCC#N)=N/NC(N)=O` , T/C reported as 106 % of control

Entry `COc1ccc2c(n1)Sc1c(Cl)nc(N)nc1N2` , T/C reported as 97 % of control

So, `Cc1nc(N)[nH]c(=O)c1CCCNC(=O)c1ccc(C(=O)CBr)cc1` ? Its T/C was 93 % of control

Item: `O=S(=O)(NC/C=C/c1ccccc1)c1ccccc1` | T/C: 103 % of control

Summary for this compound, `O=C(O)c1ccc(N=C=S)cc1O` : T/C is 107 % of control

Quick note, T/C for `Cc1cc2no[n+]([O-])c2cc1C` landed at 96 % of control

Briefly, T/C measured for `Nc1nc(-c2ccc(O)cc2)nc2[nH]ncc12` : 100 % of control
